// data source = ChEMBL document CHEMBL1667848

Measurement description: Cytotoxicity against mouse 26-L5 cells upto 10 ug/ml
Type: cell-based
Recorded endpoint: Activity

Smiles entry	Recorded endpoint	Observed
CCNc1cccc(C)c1C(=O)OC[C@H]1O[C@H](O[C@H]2O[C@H](COC(=O)c3c(C)cccc3NCC)[C@@H](O)[C@H](O)[C@H]2O)[C@H](O)[C@@H](O)[C@@H]1O	Activity	Non-toxic
O=C(OC[C@H]1O[C@H](O[C@H]2O[C@H](COC(=O)c3cccc(O)c3O)[C@@H](O)[C@H](O)[C@H]2O)[C@H](O)[C@@H](O)[C@@H]1O)c1cccc(O)c1O	Activity	Non-toxic
COc1ccccc1C(=O)OC[C@H]1O[C@H](O[C@H]2O[C@H](COC(=O)c3ccccc3OC)[C@@H](O)[C@H](O)[C@H]2O)[C@H](O)[C@@H](O)[C@@H]1O	Activity	Non-toxic
